target: GPR174 (Homo sapiens); experiment: CRE-Luc reporter Gs signaling assay with GPR174; type: cell-based; set-up: host or cells: HEK293 or CHO cell lines (ATCC); settings: increasing concentrations of compound
measurement_label: Gs pathway in the presence of GPR174 (CRE-Luc reporter)

compound	result
Cc1cc(Cc2ccc(NC(=O)c3cccs3)c(C)c2)ccc1NC(=O)c1cccs1	did not modulate
CCOC(=O)N1CCN(c2cc(N3CCCCC3)c(F)cc2[N+](=O)[O-])CC1	inhibited
CCCCOc1ccc(C2C3=C(CCCC3=O)NC3=C2C(=O)c2ccccc23)cc1 (stereo not drawn)	inhibited
O=[N+]([O-])c1cc(F)c(N2CCCCC2)cc1N1CCN(S(=O)(=O)c2ccccc2)CC1	inhibited
CCOc1ccc(C2C3=C(CCCC3=O)NC3=C2C(=O)c2ccccc23)cc1 (stereo not drawn)	inhibited
CC(=O)N1CCN(c2cc(N3CCCCC3)c(F)cc2[N+](=O)[O-])CC1	inhibited
COc1ccc(C2C3=C(CCCC3=O)NC3=C2C(=O)c2ccccc23)cc1 (stereo not drawn)	inhibited
CCOC(=O)N1CCN(c2cc(N3CCC(C)CC3)c(F)cc2[N+](=O)[O-])CC1	inhibited
CCCC(=O)c1ccc(N2CCN(S(=O)(=O)c3ccc(C)cc3)CC2)c(F)c1	did not modulate
O=C1CCCC2=C1C(c1ccc3c(c1)OCCO3)C1=C(N2)c2ccccc2C1=O (stereo not drawn)	inhibited
O=C1CCCC2=C1C(c1ccc(OCCO)cc1)C1=C(N2)c2ccccc2C1=O (stereo not drawn)	inhibited
O=C1CCCC2=C1C(c1ccncc1)C1=C(N2)c2ccccc2C1=O (stereo not drawn)	inhibited
O=C(c1ccccc1)N1CCN(c2cc(N3CCCCC3)c(F)cc2[N+](=O)[O-])CC1	inhibited
CC1CCN(c2cc(N3CCN(S(=O)(=O)c4ccccc4)CC3)c([N+](=O)[O-])cc2F)CC1	inhibited
Cc1ccc(-c2nnc(Nc3ccccc3)c3ccccc23)cc1S(N)(=O)=O	did not modulate

* * *

molecular target: GPR174 (Homo sapiens, UniProt Q9BXC1); assay: CRE-Luc reporter Gs signaling assay with GPR174; format: cell-based; design: host or cells: HEK293 or CHO cell lines (ATCC); settings: pCRE-Luc reporter; multiple values = separate experiments
Sequence (Q9BXC1 whole entry): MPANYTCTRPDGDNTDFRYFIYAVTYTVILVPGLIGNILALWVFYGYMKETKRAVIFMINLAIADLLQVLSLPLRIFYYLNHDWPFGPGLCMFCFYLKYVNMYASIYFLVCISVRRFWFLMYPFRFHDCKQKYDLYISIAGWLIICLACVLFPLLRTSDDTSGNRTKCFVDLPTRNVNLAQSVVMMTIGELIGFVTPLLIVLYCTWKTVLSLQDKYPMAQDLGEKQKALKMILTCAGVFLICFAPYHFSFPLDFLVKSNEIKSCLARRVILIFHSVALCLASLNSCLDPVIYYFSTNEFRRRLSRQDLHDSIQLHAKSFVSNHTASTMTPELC
As shown below, each of these compounds has a reported EC50 value.

compound	EC50, µM
O=C1CCCC2=C1C(c1ccc(Oc3ccccc3)cc1)C1=C(N2)c2ccccc2C1=O (centres unmarked)	1
O=[N+]([O-])c1cc(F)c(N2CCCCCC2)cc1N1CCN(S(=O)(=O)c2ccccc2)CC1	1.8
CC(C)c1ccc(C2C3=C(CCCC3=O)NC3=C2C(=O)c2ccccc23)cc1 (centres unmarked)	1.2
O=C1CCCC2=C1C(c1ccc(OC3CCCC3)cc1)C1=C(N2)c2ccccc2C1=O (centres unmarked)	1
CCCOc1ccc(C2C3=C(CCCC3=O)NC3=C2C(=O)c2ccccc23)cc1 (centres unmarked)	1
O=C1CCCC2=C1C(c1ccc(OC(F)F)cc1)C1=C(N2)c2ccccc2C1=O (centres unmarked)	1.2
CCCCOc1ccc(C2C3=C(CCCC3=O)NC3=C2C(=O)c2ccccc23)cc1 (centres unmarked)	1.2
CC(C)Oc1ccc(C2C3=C(CCCC3=O)NC3=C2C(=O)c2ccccc23)cc1 (centres unmarked)	0.6

* * *

target: GPR174 (Homo sapiens, UniProt Q9BXC1); assay: CRE-Luc reporter Gs signaling assay with GPR174; assay type: cell-based; set-up: host or cells: HEK293 or CHO cell lines (ATCC); details: pCRE-Luc reporter; multiple values = separate experiments

molecule	scale_unit	EC50
CS(=O)(=O)c1ccc(C2C3=C(CCCC3=O)NC3=C2C(=O)c2ccccc23)cc1 (centres unmarked)	µM	3.3
O=C1CCCC2=C1C(c1ccc([N+](=O)[O-])cc1)C1=C(N2)c2ccccc2C1=O (centres unmarked)	µM	2.7
CCCC(=O)N1CCN(c2cc(N3CCCCC3)c(F)cc2[N+](=O)[O-])CC1	µM	0.9
COc1cccc(C2C3=C(CCCC3=O)NC3=C2C(=O)c2ccccc23)c1 (centres unmarked)	µM	3.6
CCCCCCOc1ccc(C2C3=C(CCCC3=O)NC3=C2C(=O)c2ccccc23)cc1 (centres unmarked)	µM	0.5
CCOc1ccc(C2C3=C(CCCC3=O)NC3=C2C(=O)c2ccccc23)cc1OCC (centres unmarked)	µM	3.8
CC1CCCCN1c1cc(N2CCN(C(=O)C(C)(C)C)CC2)c([N+](=O)[O-])cc1F (centres unmarked)	µM	3
C=C(C)COc1ccc(NC(=O)Nc2ccccc2)cc1	µM	0.5
O=C1CCCC2=C1C(c1ccc(-c3ccccc3)cc1)C1=C(N2)c2ccccc2C1=O (centres unmarked)	µM	2.5
O=C1CCCC2=C1C(c1ccccc1)C1=C(N2)c2ccccc2C1=O (centres unmarked)	µM	4.6
O=C1CCCC2=C1C(c1ccc(OC(F)(F)F)cc1)C1=C(N2)c2ccccc2C1=O (centres unmarked)	µM	1.2
CCOc1cccc(C2C3=C(CCCC3=O)NC3=C2C(=O)c2ccccc23)c1 (centres unmarked)	µM	1.6
O=C1CCCC2=C1C(c1ccc(F)cc1)C1=C(N2)c2ccccc2C1=O (centres unmarked)	µM	4.3
CC(C)C(=O)N1CCN(c2cc(N3CCCCC3C)c(F)cc2[N+](=O)[O-])CC1 (centres unmarked)	µM	0.8
CCc1ccc(C2C3=C(CCCC3=O)NC3=C2C(=O)c2ccccc23)cn1 (centres unmarked)	µM	2
COc1cc(C2C3=C(CCCC3=O)NC3=C2C(=O)c2ccccc23)ccc1O (centres unmarked)	µM	3.6
O=C1CCCC2=C1C(c1ccc(Cl)cc1)C1=C(N2)c2ccccc2C1=O (centres unmarked)	µM	3

Hello, the source for this data is patent US20200345725A1, in case you need it.
